Numbers sourced from patent US20100076024A1.

Molecular target: recombinant human DPP-4 (Homo sapiens)
Sequence (P27487 whole entry): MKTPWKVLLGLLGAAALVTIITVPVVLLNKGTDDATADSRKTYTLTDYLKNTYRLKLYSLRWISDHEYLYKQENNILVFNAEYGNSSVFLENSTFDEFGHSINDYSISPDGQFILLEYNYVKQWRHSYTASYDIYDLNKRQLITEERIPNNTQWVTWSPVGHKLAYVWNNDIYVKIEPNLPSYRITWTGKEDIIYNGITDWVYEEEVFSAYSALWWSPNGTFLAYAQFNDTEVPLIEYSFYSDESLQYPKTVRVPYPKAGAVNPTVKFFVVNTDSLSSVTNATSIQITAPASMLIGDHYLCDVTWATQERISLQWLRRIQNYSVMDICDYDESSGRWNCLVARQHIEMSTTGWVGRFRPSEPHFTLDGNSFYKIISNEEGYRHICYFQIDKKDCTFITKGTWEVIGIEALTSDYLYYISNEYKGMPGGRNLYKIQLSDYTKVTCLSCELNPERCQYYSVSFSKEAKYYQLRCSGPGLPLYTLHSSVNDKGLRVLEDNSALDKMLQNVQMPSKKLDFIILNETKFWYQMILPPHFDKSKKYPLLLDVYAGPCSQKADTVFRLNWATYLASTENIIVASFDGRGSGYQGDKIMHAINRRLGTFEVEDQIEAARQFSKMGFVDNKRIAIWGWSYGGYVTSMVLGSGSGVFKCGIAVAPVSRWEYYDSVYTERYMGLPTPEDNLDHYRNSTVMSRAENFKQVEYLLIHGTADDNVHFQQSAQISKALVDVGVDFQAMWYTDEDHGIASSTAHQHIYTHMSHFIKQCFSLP
Assay: recombinant human DPP-4 fluorogenic substrate cleavage assay
Type: biochemical
Conditions: compound 10 uM; substrate (H-Ala-Pro)-2-Rh110 10 μM; 1 hour pre-incubation, room temperature; read-out: % Inhib at 10 uM
Recorded measurements of inhibition at 10 µM, one per entry
METRIC: inhibition at 10 µM (%)

N[C@@H](CCN1CCC(c2ccccc2F)C1)Cc1cc(F)c(F)cc1F (stereo partly shown)	99.5
N[C@@H](CCN1CCCC(c2ccc(F)cc2)C1)Cc1cc(F)c(F)cc1F (stereo partly shown)	99.6
N[C@@H](CCN1CCCC(c2ccc(C(F)(F)F)cc2)C1)Cc1cc(F)c(F)cc1F (stereo partly shown)	99.3
COc1ccc(C2CCN(CC[C@H](N)Cc3cc(F)c(F)cc3F)C2)cc1 (stereo partly shown)	98.4

---

Molecular target: recombinant human DPP-4 (Homo sapiens)
Assay: recombinant human DPP-4 fluorogenic substrate cleavage assay
Format: biochemical
Conditions: compound 10 uM; substrate (H-Ala-Pro)-2-Rh110 10 μM; 1 hour pre-incubation, room temperature; read-out: % Inhib at 10 uM
Recorded measurements of inhibition at 10 µM, one per entry
METRIC: inhibition at 10 µM (%)

N[C@@H](CCN1CCC(c2cccc(F)c2)C1)Cc1cc(F)c(F)cc1F (stereo partly drawn) [Compound 22]	99.6
N[C@@H](CCN1CCCC(c2cccc(C(F)(F)F)c2)C1)Cc1cc(F)c(F)cc1F (stereo partly drawn) [Compound 6]	98.9
N[C@@H](CCN1CCCC(c2ccccc2C(F)(F)F)C1)Cc1cc(F)c(F)cc1F (stereo partly drawn) [Compound 7]	98.3
N[C@@H](CCN1CCCC(c2ccccc2)C1)Cc1cc(F)c(F)cc1F (stereo partly drawn) [Compound 1]	99.9
COc1ccc(C2CCCN(CC[C@H](N)Cc3cc(F)c(F)cc3F)C2)cc1 (stereo partly drawn) [Compound 2]	99.5
N[C@@H](CCN1CCCC(c2ccc3c(c2)OCO3)C1)Cc1cc(F)c(F)cc1F (stereo partly drawn) [Compound 27]	99.7
Cc1ccccc1C1CCCN(CC[C@H](N)Cc2cc(F)c(F)cc2F)C1 (stereo partly drawn) [Compound 10]	99.4
N[C@@H](CCN1CCCC1)Cc1cc(F)c(F)cc1F [Compound 28]	99.1
N[C@@H](CCN1CCC(c2ccc(F)cc2)C1)Cc1cc(F)c(F)cc1F (stereo partly drawn) [Compound 21]	99.6
